B1: ADD1 (parent)
chain: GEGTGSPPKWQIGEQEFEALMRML

- Variants of: B1
- experiment-notes: protein stability index of a GFP-peptide fusion (GPS, HEK-293T) (PSI 1-6); higher = more stable;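 also: lentivirally expressed fusions sorted by FACS into six bins by GFP to DsRed ratio, PSI derived from sequencing read proportions per bin multiplied by bin number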
- assay-context: c terminus: a fixed tail appended
The variants listed here are annotated with their protein stability index.
endpoint-label: protein stability index

[[record]]
mutation_string = "E14Y"
test_result = 1.8

[[record]]
mutation_string = "R22H"
test_result = 2.92

[[record]]
mutation_string = "G3K"
test_result = 2.64

[[record]]
mutation_string = "R22Y"
test_result = 2.37

[[record]]
mutation_string = "Q11S"
test_result = 3.42

[[record]]
mutation_string = "G13S"
test_result = 3.22

[[record]]
mutation_string = "T4Y"
test_result = 3.26

[[record]]
mutation_string = "E2Y"
test_result = 2.28

[[record]]
mutation_string = "E18S"
test_result = 3.17

[[record]]
mutation_string = "G3M"
test_result = 3.01

[[record]]
mutation_string = "E14S"
test_result = 2.94

[[record]]
mutation_string = "E16M"
test_result = 1.74

[[record]]
mutation_string = "Q15F"
test_result = 2.33

[[record]]
mutation_string = "G3Q"
test_result = 3.8

[[record]]
mutation_string = "M23K"
test_result = 4.49

[[record]]
mutation_string = "E14D"
test_result = 3.17

[[record]]
mutation_string = "G5R"
test_result = 2.77

[[record]]
mutation_string = "I12W"
test_result = 2.81

[[record]]
mutation_string = "P8H"
test_result = 2.56

[[record]]
mutation_string = "L24Y"
test_result = 2.68

[[record]]
mutation_string = "G5H"
test_result = 3.12

[[record]]
mutation_string = "M23A"
test_result = 3.58

